# System: KM20L2 colon
# assay-overview: NCI tumour cell line growth inhibition, 48 h
Measured TGI of individual entries
Please respond with the number in µM and leave the unit unwritten.

CCOC(OC1=C(C#N)CCC1)C(CC)[Se]c1ccccc1 (stereo not given) | 64.7

Read the next record carefully.
Query: TGI lookup needed for CC(O)C(NC(=O)C(CS)NC(=O)C(CO)NC(=O)C(CCCCN)NC(=O)C(Cc1c[nH]c2ccccc12)NC(=O)C(Cc1ccc(O)cc1)NC(=O)C(CS)NC(=O)C(N)Cc1ccccc1)C(N)=O (stereo not given) , thanks.
Result: 55.8

---

// OVCAR-4 ovarian GI50 records

For orientation, consider the following solved cases.
[Cl][Sn]([c]1ccccc1)[c]1ccccc1 | 15.2 µM
CC(O)C(NC(=O)C(CS)NC(=O)C(CO)NC(=O)C(CCCCN)NC(=O)C(Cc1c[nH]c2ccccc12)NC(=O)C(Cc1ccc(O)cc1)NC(=O)C(CS)NC(=O)C(N)Cc1ccccc1)C(N)=O (centres undefined) | 26.6 µM
CC(C)(C)C([O-])=C1C(=O)c2ccccc2C1=O.CC(C)(C)C([O-])=C1C(=O)c2ccccc2C1=O.CC[O-].CC[O-].[Ti+4] | 58.7 µM

Query: So what GI50 did O=c1c(OC/C(=N/O)c2ccccc2)c(-c2ccccc2)oc2ccccc12 get with OVCAR-4 ovarian?
Result: 38.6 µM

Query: So what GI50 did O=C(/C=C/c1ccc([N+](=O)[O-])o1)NNC(=O)c1cc2ccccc2cc1O get with OVCAR-4 ovarian?
Result: 1.26 µM

Query: So what GI50 did O=C1C=C(c2cc(Br)c(O)c(Br)c2)/C(=C/c2cc(Br)c(O)c(Br)c2)O1 get with OVCAR-4 ovarian?
Result: 50.4 µM

Query: So what GI50 did C=C1C(=O)O[C@H]2[C@H]1CC/C(COC(=O)c1ccc(C(=O)O)s1)=C\CC[C@@]1(C)O[C@@H]21 get with OVCAR-4 ovarian?
Result: 3.18 µM

Query: So what GI50 did CCOC(=O)/C(C1=CC(=O)C(=O)c2ccccc21)=C(/C)NCc1ccccc1 get with OVCAR-4 ovarian?
Result: 3.12 µM

Query: So what GI50 did ClCCn1cnc2c(SCc3ccccc3)ncnc21 get with OVCAR-4 ovarian?
Result: 19.8 µM

---

Measured TGI of individual entries
# Test system: MOLT-4 leukemia
# assay-overview: NCI tumour cell line growth inhibition, 48 h

For orientation, consider the following solved cases.
Clc1ccc(OCc2nnc(CCCCCCCCc3nnc(COc4ccc(Cl)cc4Cl)o3)o2)c(Cl)c1 | > 100 µM
O=C1NC(=O)C(c2ccccc2Cl)=C1Nc1cccc(O)c1 | > 25 µM
OCC1OC(N2C=C(c3nc4ccccc4s3)C3C=CC=CC32)C(O)C1O (centres undefined) | > 50 µM

Query: TGI lookup needed for O=S(=O)(O)c1ccc2cc(N=Nc3cc(S(=O)(=O)O)c4cccnc4c3O)ccc2c1 , thanks.
Result: > 100 µM

Query: TGI lookup needed for Cc1ccc(S(=O)(=O)ON/N=C2/C3OC3[C@@H]3CCCC[C@H]23)cc1 (some centres undefined) , thanks.
Result: > 100 µM

Query: TGI lookup needed for c1cc(-c2sc(-c3ccncc3)c(-c3ccncc3)c2-c2ccncc2)ccn1 , thanks.
Result: > 100 µM

Query: TGI lookup needed for O=c1[nH]cnc2c1ncn2[C@H]1CO[C@@H](CO)[C@@H]1O , thanks.
Result: > 100 µM

Query: TGI lookup needed for COc1ccc(-c2cc(-c3ccc(Nc4ccnc5cc(Cl)ccc45)cc3)nc(N)c2C#N)c2ccccc12 , thanks.
Result: > 100 µM

Query: TGI lookup needed for Cc1nnc2c3c(-c4ccccc4)c(-c4ccccc4)oc3nc(N(C)C)n12 , thanks.
Result: > 100 µM

Query: TGI lookup needed for Cn1c(N/N=C/c2ccc(Cl)cc2)nc(-c2ccc(Cl)cc2)c(C#N)c1=O , thanks.
Result: > 100 µM

Query: TGI lookup needed for CCOC(=O)/C=C/c1ccc(C(=O)OCC)[nH]1 , thanks.
Result: > 100 µM

Query: TGI lookup needed for O=C(N/N=C/c1ccc(F)cc1)c1[nH]c2ccc(I)cc2c1-c1ccccc1 , thanks.
Result: > 36.9 µM

Query: TGI lookup needed for Cc1ccc2c(c1)sc(-c1ccc(N(C)C)cc1)[n+]2C , thanks.
Result: > 48.7 µM

---

Measured TGI of individual entries
# Test system: SNB-19 CNS
# assay-overview: NCI tumour cell line growth inhibition, 48 h

For orientation, consider the following solved cases.
Nc1cc(CO)cc(Nc2c3ccccc3nc3occc23)c1 | > 100 µM
CN(C)CCNC(=O)c1cccc(CO)c1[N+](=O)[O-] | > 100 µM
OCCCNCc1ccccn1 | > 100 µM
CC1(C)C2CCC1C(=O)C(C=O)C2 (stereo not given) | > 100 µM
C=C[C@H]1CN2CC[C@H]1C[C@@H]2[C@@H](O)c1ccnc2ccccc12 | > 100 µM

Read the next record carefully.
Query: TGI lookup needed for CC1(C)N=C(N)N=C(N)N1c1cccc(CSc2ccccc2)c1 , thanks.
Result: > 100 µM

---

Measured TGI of individual entries
# Test system: EKVX NSCLC
# assay-overview: NCI tumour cell line growth inhibition, 48 h

O=S1(=O)c2ccccc2N2CCCc3cc(Cl)cc1c32 | > 100 µM
CN(C)Cc1cc(C(=O)O)cc(CN(C)C)c1O | > 100 µM

Read the next record carefully.
Query: TGI lookup needed for O=c1oc2c3ccc4ccccc4c3n(Cc3nc4ccccc4[nH]3)c2c2ccccc12 , thanks.
Result: > 31.6 µM

---

# Test system: SNB-78 CNS
# assay-overview: NCI tumour cell line growth inhibition, 48 h
Measured TGI of individual entries

Cc1c(C(=O)CC(=O)C(=O)NC2C3CC4CC(C3)CC2C4)[n+](=O)c2ccccc2n1[O-] (configuration not stated) | > 100 µM
CC(=O)O/C(C)=C\C(=O)O/N=C(\N)c1ccc(C)cc1 | 70.9 µM
c1cc2c(cnc3cscc32)s1 | > 100 µM
CN(C)CCNC(=O)c1cc([N+](=O)[O-])cc2ccc(-c3ccccc3)nc12 | > 60.9 µM
c1cncc(C2c3[nH]c4ccccc4c3CCN2CCN2CCCCC2)c1 (configuration not stated) | > 100 µM
COc1cccc2c1C1=CC(=O)CCC1C(C)(C)O2 (configuration not stated) | > 100 µM

Read the next record carefully.
Query: TGI lookup needed for CCCCS(=N)(=O)CC[C@H](N)C(=O)O (some centres not stated) , thanks.
Result: > 5000 µM

---

# System: SW-620 colon
# assay-overview: NCI tumour cell line growth inhibition, 48 h
Measured TGI of individual entries

For orientation, consider the following solved cases.
O=C(CSC1=NCCN1)c1ccccc1 | > 100 µM
CCCCCC(C)C[C@H]1CO[C@H](c2ccc[nH]2)N[C@H]1C(=O)OC (stereo partly drawn) | > 100 µM
Cc1cc2ccccc2c[n+]1CC(=O)CC([O-])(C(F)(F)F)C(F)(F)F | > 100 µM
COc1ccc(/C=[N+](\[O-])[C@H](COCc2ccccc2)c2ccccc2)cc1 | > 100 µM
CC(=O)O[C@H]1/C(=C/c2ccc(N(C)C)cc2)C[C@H]2[C@@H]3CC=C4C[C@@H](N5CCCC5)CC[C@]4(C)[C@H]3CC[C@]12C | > 100 µM

Query: TGI lookup needed for C=C1C(O)C2C(=C(CC(C)C)C13CC3)C(=O)C(C)(C)C2OC (stereo not drawn) , thanks.
Result: > 100 µM

Query: TGI lookup needed for ClCCn1cnc2c(SCc3ccccc3)ncnc21 , thanks.
Result: > 100 µM

Query: TGI lookup needed for CCOC(=O)/C(=C\c1ccc(CO)o1)P(=O)(OCC)OCC , thanks.
Result: 60.9 µM

Query: TGI lookup needed for COC1CCC(OC2CC(C3(C)CCC4(CC(O)C(C)C(C(C)/C=C(\C)C(=O)C(C)CC(C)C(=O)O)O4)O3)OC3(OC(C4OC(O)(CO)C(C)CC4C)CC3C)C2C)OC1C (stereo not drawn) , thanks.
Result: 1.88 µM

Query: TGI lookup needed for O=C(c1cccs1)N(C(=O)N1CCC(c2ccccc2)CC1)c1ccccc1 , thanks.
Result: > 100 µM

Query: TGI lookup needed for CCOC(=O)/C=C(/CN1C(=O)c2ccccc2C1=O)c1ccccc1 , thanks.
Result: > 100 µM

Query: TGI lookup needed for COc1cc(C(C#N)NNC(=O)c2ccccc2O)ccc1O (stereo not drawn) , thanks.
Result: > 100 µM

Query: TGI lookup needed for COC1C(=O)CCC2(CO2)C1(O)C1(C)OC1CCC(C)C (stereo not drawn) , thanks.
Result: > 100 µM

Query: TGI lookup needed for COc1ccc(-c2cc(-c3ccc(Nc4ccnc5cc(Cl)ccc45)cc3)nc(N)c2C#N)c2ccccc12 , thanks.
Result: > 100 µM

Data credit: PubChem BioAssay (NCI)
